Molecular target: PTPN3, P26045
Sequence (P26045 505-587): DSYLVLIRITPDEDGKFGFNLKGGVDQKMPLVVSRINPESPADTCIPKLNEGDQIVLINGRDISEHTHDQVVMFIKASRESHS
Assay: holdup assay
Set-up: key: below the threshold = too weak to quantify, mostly under pKd 3.1 to 4
Conditions: plain residues with an end cap or a label only (N-terminal biotin on a linker: ttds)
Each entry below lists one item and its recorded pKd value.
No unit in the answer, only the number.

Below are worked cases with known answers.
>  <binder>
PVRVCEETSL [OTULIN, Q96BN8]

>  <pKd>
5.01

$$$$
>  <binder>
DKDPHSETAL [TMIGD1, Q6UXZ0]

>  <pKd>
5.02

$$$$

# input Quickly give me recorded pKd for RLQRRRETQV [HPV18-E6, P06463]
# output 4.49
